tested on: AsPC-1 (Pancreatic Carcinoma); test: Bliss excess, mean over the matrix (fraction); higher = more synergy
Short version: Bliss excess at least -0.02 is TRUE, less is FALSE.

- molecule: "CC1(C)CCC(CN2CCN(c3ccc(C(=O)NS(=O)(=O)c4ccc(NCC5CCOCC5)c([N+](=O)[O-])c4)c(Oc4cnc5[nH]ccc5c4)c3)CC2)=C(c2ccc(Cl)cc2)C1 [Venetoclax] + Cn1cnc2c(F)c(Nc3ccc(Br)cc3Cl)c(C(=O)NOCCO)cc21 [Selumetinib] (first compound max 1 µM, 7x7, partner max 3 µM)"
  label.class: "FALSE"
- molecule: "CC1(C)CCC(CN2CCN(c3ccc(C(=O)NS(=O)(=O)c4ccc(NCC5CCOCC5)c([N+](=O)[O-])c4)c(Oc4cnc5[nH]ccc5c4)c3)CC2)=C(c2ccc(Cl)cc2)C1 [Venetoclax] + C1CN(CCC1(C(=O)N[C@@H](CCO)C2=CC=C(C=C2)Cl)N)C3=NC=NC4=C3C=CN4 [Capivasertib] (first compound max 1 µM, 7x7, partner max 3 µM)"
  label.class: "FALSE"
- molecule: "Cn1cnc2c(F)c(Nc3ccc(Br)cc3Cl)c(C(=O)NOCCO)cc21 [Selumetinib] + CC(C)n1c(=O)n(C)c2cnc3cc(F)c(-c4ccc(OCCCN5CCCCC5)nc4)cc3c21 [AZD1390] (first compound max 10 µM, 7x7, partner max 0.3 µM)"
  label.class: "TRUE"
- molecule: "CN(CCO)CC[C@H](CSc1ccccc1)Nc1ccc(S(=O)(=O)NC(=O)c2ccc(N3CCC([C@@H](O)c4ccccc4-c4ccc(Cl)cc4)CC3)cc2)cc1S(=O)(=O)C(F)(F)F [AZD4320] + CN(C)CCCOc1ccc(-c2ccc3ncc4c(c3c2)n(C2CCOCC2)c(=O)n4C)cn1 [AZD0156] (first compound max 1 µM, 7x7, partner max 1 µM)"
  label.class: "FALSE"
- molecule: "COc1cccc(OCCCN)c1-c1cc(Nc2cnc(C#N)cn2)n[nH]1 [Prexasertib] + CN(C)CCCOc1ccc(-c2ccc3ncc4c(c3c2)n(C2CCOCC2)c(=O)n4C)cn1 [AZD0156] (first compound max 1 µM, 7x7, partner max 1 µM)"
  label.class: "TRUE"
- molecule: "C[C@@H]1COCCN1c1cc(C2([S@](C)(=N)=O)CC2)nc(-c2ccnc3[nH]ccc23)n1 [AZD6738] + O=C(c1cc(Cc2n[nH]c(=O)c3ccccc23)ccc1F)N1CCN(C(=O)C2CC2)CC1 [Olaparib] (first compound max 10 µM, 7x7, partner max 10 µM)"
  label.class: "FALSE"
- molecule: "COc1cccc(OCCCN)c1-c1cc(Nc2cnc(C#N)cn2)n[nH]1 [Prexasertib] + C=CCn1c(=O)c2cnc(Nc3ccc(N4CCN(C)CC4)cc3)nc2n1-c1cccc(C(C)(C)O)n1 [AZD1775] (first compound max 1 µM, partner max 1 µM)"
  label.class: "TRUE"
- molecule: "CC(=O)c1c(C)c2cnc(Nc3ccc(N4CCNCC4)cn3)nc2n(C2CCCC2)c1=O [Palbociclib] + CN(CC[C@H](CSC1=CC=CC=C1)NC2=C(C=C(C=C2)S(=O)(=O)NC(=O)C3=CC=C(C=C3)N4CCC(CC4)[C@H](C5=CC=CC=C5C6=CC=C(C=C6)Cl)O)S(=O)(=O)C(F)(F)F)CCO [AZD4320] (first compound max 10 µM, 7x7, partner max 1 µM)"
  label.class: "FALSE"
- molecule: "COc1nnc2ccc(N3CCC(c4ccc(OCCN5CCN(C)C(=O)[C@H]5C)cc4)CC3)nn12 [AZD5153] + Cn1cnc2c(F)c(Nc3ccc(Br)cc3Cl)c(C(=O)NOCCO)cc21 [Selumetinib] (first compound max 1 µM, 7x7, partner max 10 µM)"
  label.class: "FALSE"

###

test system: RMG-I (Ovarian Carcinoma); experiment: combination Emax (second highest fraction inhibited in the dose matrix, 72 h); higher = more inhibition; extreme values may be limits of the assay

- molecule: "C=CCn1c(=O)c2cnc(Nc3ccc(N4CCN(C)CC4)cc3)nc2n1-c1cccc(C(C)(C)O)n1 [AZD1775] + Nc1ccn([C@@H]2O[C@H](CO)[C@@H](O)C2(F)F)c(=O)n1 [Gemcitabine] (first compound max 1 µM, partner max 0.3 µM)"
  experimental.system: "RMG-I (Ovarian Carcinoma)"
  combination Emax: 0.401
- molecule: "CN(CCO)CC[C@H](CSc1ccccc1)Nc1ccc(S(=O)(=O)NC(=O)c2ccc(N3CCC([C@@H](O)c4ccccc4-c4ccc(Cl)cc4)CC3)cc2)cc1S(=O)(=O)C(F)(F)F [AZD4320] + C[C@@H](Nc1cc(F)cc(F)c1)c1cc(C(=O)N(C)C)cc2c(=O)cc(N3CCOCC3)oc12 [AZD8186] (first compound max 1 µM, 7x7, partner max 3 µM)"
  experimental.system: "RMG-I (Ovarian Carcinoma)"
  combination Emax: 0.868
- molecule: "CS(=O)(=O)CCNCc1ccc(-c2ccc3ncnc(Nc4ccc(OCc5cccc(F)c5)c(Cl)c4)c3c2)o1 [Lapatinib] + NC1(c2ccc(-c3nc4ccn5c(=O)[nH]nc5c4cc3-c3ccccc3)cc2)CCC1 [MK-2206] (first compound max 10 µM, 7x7, partner max 10 µM)"
  experimental.system: "RMG-I (Ovarian Carcinoma)"
  combination Emax: 0.679

###

test system: PC-14 (Lung Adenocarcinoma); test: combination Emax (second highest fraction inhibited in the dose matrix, 72 h); higher = more inhibition; extreme values may be limits of the assay

- molecule: "COc1nnc2ccc(N3CCC(c4ccc(OCCN5CCN(C)C(=O)[C@H]5C)cc4)CC3)nn12 [AZD5153] + CC1(C)CCC(CN2CCN(c3ccc(C(=O)NS(=O)(=O)c4ccc(NCC5CCOCC5)c([N+](=O)[O-])c4)c(Oc4cnc5[nH]ccc5c4)c3)CC2)=C(c2ccc(Cl)cc2)C1 [Venetoclax] (first compound max 1 µM, 7x7, partner max 1 µM)"
  experimental.system: "PC-14 (Lung Adenocarcinoma)"
  combination Emax: 0.419
- molecule: "Cc1nc(-c2cn3c(n2)-c2ccc(-c4cnn(C(C)(C)C(N)=O)c4)cc2OCC3)n(C(C)C)n1 [Taselisib] + O=C(Nc1ccc2[nH]nc(-c3ccncc3)c2c1)[C@@H]1CCN(CC(=O)N2CCN(c3ccc(-c4ncccn4)cc3)CC2)C1 [SCH772984] (first compound max 10 µM, 7x7, partner max 5 µM)"
  experimental.system: "PC-14 (Lung Adenocarcinoma)"
  combination Emax: 0.973

###

system: HTC-C3 (Thyroid Gland Carcinoma); test: Bliss excess, mean over the matrix (fraction); higher = more synergy

- compound: "NC1(C(=O)N[C@@H](CCO)c2ccc(Cl)cc2)CCN(c2ncnc3[nH]ccc23)CC1 [Capivasertib] + CC(=O)c1c(C)c2cnc(Nc3ccc(N4CCNCC4)cn3)nc2n(C2CCCC2)c1=O [Palbociclib] (first compound max 10 µM, 7x7, partner max 10 µM)"
  experimental.system: "HTC-C3 (Thyroid Gland Carcinoma)"
  Bliss excess: 0.0437
- compound: "CN(CCO)CC[C@H](CSc1ccccc1)Nc1ccc(S(=O)(=O)NC(=O)c2ccc(N3CCC([C@@H](O)c4ccccc4-c4ccc(Cl)cc4)CC3)cc2)cc1S(=O)(=O)C(F)(F)F [AZD4320] + Cc1cc2ncnn2cc1Nc1ncc2c(n1)n(C1CCOCC1)c(=O)n2C [AZD7648] (first compound max 1 µM, 7x7, partner max 10 µM)"
  experimental.system: "HTC-C3 (Thyroid Gland Carcinoma)"
  Bliss excess: 0.0016
- compound: "COc1nnc2ccc(N3CCC(c4ccc(OCCN5CCN(C)C(=O)[C@H]5C)cc4)CC3)nn12 [AZD5153] + Cn1cnc2c(F)c(Nc3ccc(Br)cc3Cl)c(C(=O)NOCCO)cc21 [Selumetinib] (first compound max 1 µM, 7x7, partner max 10 µM)"
  experimental.system: "HTC-C3 (Thyroid Gland Carcinoma)"
  Bliss excess: -0.0464

###

Measured combination Emax accompanies every entry in the list below.
test system: NKM-1 (Acute Myeloid Leukemia); assay: combination Emax (second highest fraction inhibited in the dose matrix, 72 h); higher = more inhibition; extreme values may be limits of the assay

- compound: "Cc1cc2ncnn2cc1Nc1ncc2c(n1)n(C1CCOCC1)c(=O)n2C [AZD7648] + C=CCn1c(=O)c2cnc(Nc3ccc(N4CCN(C)CC4)cc3)nc2n1-c1cccc(C(C)(C)O)n1 [AZD1775] (first compound max 10 µM, partner max 1 µM)"
  combination Emax: 0.884
- compound: "COc1cccc(OCCCN)c1-c1cc(Nc2cnc(C#N)cn2)n[nH]1 [Prexasertib] + O=C(c1cc(Cc2n[nH]c(=O)c3ccccc23)ccc1F)N1CCN(C(=O)C2CC2)CC1 [Olaparib] (first compound max 1 µM, 7x7, partner max 10 µM)"
  combination Emax: 0.902

###

tested on: HSC-3 (Oral Cavity Carcinoma); test: combination Emax (second highest fraction inhibited in the dose matrix, 72 h); higher = more inhibition; extreme values may be limits of the assay
List of combination Emax values.

- compound: "CC(=O)Nc1cccc(-n2c(=O)n(C3CC3)c(=O)c3c(Nc4ccc(I)cc4F)n(C)c(=O)c(C)c32)c1 [Trametinib] + Cc1nc(-c2cn3c(n2)-c2ccc(-c4cnn(C(C)(C)C(N)=O)c4)cc2OCC3)n(C(C)C)n1 [Taselisib] (first compound max 1 µM, 7x7, partner max 10 µM)"
  combination Emax: 0.986
- compound: "Cc1c2c(nn1C)CSCc1cc(n(C)n1)CSc1cc(c3ccccc3c1)OCCCc1c(C(=O)O)n(C)c3c-2c(Cl)ccc13 [AZD5991] + CCN(CCO)CCCOc1ccc2c(Nc3cc(CC(=O)Nc4cccc(F)c4)[nH]n3)ncnc2c1 [AZD2811] (first compound max 1 µM, 7x7, partner max 1 µM)"
  combination Emax: 0.91
- compound: "Cn1cnc2c(F)c(Nc3ccc(Br)cc3Cl)c(C(=O)NOCCO)cc21 [Selumetinib] + CC(C)n1c(=O)n(C)c2cnc3cc(F)c(-c4ccc(OCCCN5CCCCC5)nc4)cc3c21 [AZD1390] (first compound max 10 µM, 7x7, partner max 0.3 µM)"
  combination Emax: 0.346
- compound: "Cc1c2c(nn1C)CSCc1cc(n(C)n1)CSc1cc(c3ccccc3c1)OCCCc1c(C(=O)O)n(C)c3c-2c(Cl)ccc13 [AZD5991] + C[C@@H]1COCCN1C2=NC(=NC(=C2)C3(CC3)[S@](=N)(=O)C)C4=C5C=CNC5=NC=C4 [AZD6738] (first compound max 1 µM, 7x7, partner max 10 µM)"
  combination Emax: 0.798
